Collected IC50 values appear next to each entry.
Measured Target: NaV1.3 (Homo sapiens)
Construct: expressed in transfected cells
Sequence (Q9NY46 whole entry): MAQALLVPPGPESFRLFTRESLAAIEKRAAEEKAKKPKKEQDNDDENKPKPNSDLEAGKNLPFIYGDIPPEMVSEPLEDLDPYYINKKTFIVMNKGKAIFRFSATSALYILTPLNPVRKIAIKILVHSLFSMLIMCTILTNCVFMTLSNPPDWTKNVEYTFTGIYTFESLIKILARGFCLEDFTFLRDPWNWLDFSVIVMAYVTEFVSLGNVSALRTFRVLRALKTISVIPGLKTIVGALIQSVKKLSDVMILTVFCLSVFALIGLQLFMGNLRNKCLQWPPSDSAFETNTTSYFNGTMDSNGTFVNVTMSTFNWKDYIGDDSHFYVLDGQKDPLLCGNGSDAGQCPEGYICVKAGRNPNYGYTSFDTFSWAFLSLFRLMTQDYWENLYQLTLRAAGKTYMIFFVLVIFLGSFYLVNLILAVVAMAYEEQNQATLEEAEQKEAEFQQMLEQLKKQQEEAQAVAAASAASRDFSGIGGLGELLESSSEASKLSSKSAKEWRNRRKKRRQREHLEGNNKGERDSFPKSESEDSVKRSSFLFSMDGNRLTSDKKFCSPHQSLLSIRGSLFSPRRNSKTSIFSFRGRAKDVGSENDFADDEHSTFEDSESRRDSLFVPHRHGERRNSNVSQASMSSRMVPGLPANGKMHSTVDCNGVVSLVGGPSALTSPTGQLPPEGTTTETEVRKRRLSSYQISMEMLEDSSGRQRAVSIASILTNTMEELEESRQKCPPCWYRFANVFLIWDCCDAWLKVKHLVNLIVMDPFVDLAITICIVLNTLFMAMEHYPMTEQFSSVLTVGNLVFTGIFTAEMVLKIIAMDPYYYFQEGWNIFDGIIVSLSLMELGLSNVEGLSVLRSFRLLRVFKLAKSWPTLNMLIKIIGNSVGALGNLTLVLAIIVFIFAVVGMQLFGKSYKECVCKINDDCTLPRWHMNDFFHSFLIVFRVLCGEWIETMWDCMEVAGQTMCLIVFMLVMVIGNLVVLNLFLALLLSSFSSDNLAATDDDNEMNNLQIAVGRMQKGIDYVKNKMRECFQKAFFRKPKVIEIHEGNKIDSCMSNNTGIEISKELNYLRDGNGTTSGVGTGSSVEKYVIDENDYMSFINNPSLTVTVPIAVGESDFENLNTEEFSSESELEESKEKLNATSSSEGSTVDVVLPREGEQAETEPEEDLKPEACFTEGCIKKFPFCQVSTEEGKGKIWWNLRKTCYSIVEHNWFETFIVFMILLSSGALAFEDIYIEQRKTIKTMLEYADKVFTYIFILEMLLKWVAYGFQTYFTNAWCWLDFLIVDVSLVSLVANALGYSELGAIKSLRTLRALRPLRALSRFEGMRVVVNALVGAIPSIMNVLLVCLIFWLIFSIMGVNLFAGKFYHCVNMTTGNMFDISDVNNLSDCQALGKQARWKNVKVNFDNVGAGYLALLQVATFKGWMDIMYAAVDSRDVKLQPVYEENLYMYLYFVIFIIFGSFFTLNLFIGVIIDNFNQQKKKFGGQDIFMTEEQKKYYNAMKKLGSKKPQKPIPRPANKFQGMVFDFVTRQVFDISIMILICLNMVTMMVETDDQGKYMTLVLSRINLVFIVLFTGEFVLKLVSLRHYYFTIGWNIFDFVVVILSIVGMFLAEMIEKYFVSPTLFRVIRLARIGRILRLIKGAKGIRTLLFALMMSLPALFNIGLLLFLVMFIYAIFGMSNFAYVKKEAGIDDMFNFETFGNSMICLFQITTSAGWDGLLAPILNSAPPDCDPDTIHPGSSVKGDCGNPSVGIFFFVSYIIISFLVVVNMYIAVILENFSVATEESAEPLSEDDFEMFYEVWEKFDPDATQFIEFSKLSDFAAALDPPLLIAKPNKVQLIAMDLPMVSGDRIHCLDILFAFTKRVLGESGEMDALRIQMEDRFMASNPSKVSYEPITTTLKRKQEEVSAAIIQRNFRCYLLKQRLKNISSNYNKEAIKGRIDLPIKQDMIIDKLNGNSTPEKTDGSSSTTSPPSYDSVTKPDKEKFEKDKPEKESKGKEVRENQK
Assay Comment: VIPR optical membrane potential assay with electrical stimulation, HEK293 cells stably expressing NaV1.3
Type: cell-based
Study Conditions: compound activity for the NaV1.3 receptors
Measurement Name: IC50

>>> result("COC(=O)NS(=O)(=O)c1ccc(NC(=O)[C@@H](C)Oc2ccc(Cl)cc2C)cc1")
"> 5 µM"
>>> result("CCOC(=O)NS(=O)(=O)c1ccc(NC(=O)[C@@H](C)n2ccc3c(F)cccc32)cc1")
"> 5 µM"
>>> result("COC(=O)NS(=O)(=O)c1ccc(NC(=O)[C@@H](C)n2ccc3ccc(C(F)(F)F)cc32)cc1")
"< 2 µM"
>>> result("CCC#CCOC(=O)NS(=O)(=O)c1ccc(NC(=O)[C@@H](C)n2ccc3c(F)cccc32)cc1")
"> 5 µM"
>>> result("C[C@H](C(=O)Nc1ccc(S(=O)(=O)NC(=O)NC(C)(C)C)cc1)n1ccc2c(F)cccc21")
"> 5 µM"
>>> result("COC(=O)NS(=O)(=O)c1ccc(NC(=O)[C@@H](C)n2ccc3ccccc32)cc1")
"2 to 5 µM"
>>> result("COC(=O)NS(=O)(=O)c1ccc(NC(=O)Cn2ccc3ccc(OC)cc32)cc1")
"> 5 µM"
